Reported hERG current change (%, negative = inhibition) at 1uM values for the following molecules.
system: human ether-à-go-go-related gene (hERG) potassium channel (human)
Sequence (Q12809 whole entry, looked up): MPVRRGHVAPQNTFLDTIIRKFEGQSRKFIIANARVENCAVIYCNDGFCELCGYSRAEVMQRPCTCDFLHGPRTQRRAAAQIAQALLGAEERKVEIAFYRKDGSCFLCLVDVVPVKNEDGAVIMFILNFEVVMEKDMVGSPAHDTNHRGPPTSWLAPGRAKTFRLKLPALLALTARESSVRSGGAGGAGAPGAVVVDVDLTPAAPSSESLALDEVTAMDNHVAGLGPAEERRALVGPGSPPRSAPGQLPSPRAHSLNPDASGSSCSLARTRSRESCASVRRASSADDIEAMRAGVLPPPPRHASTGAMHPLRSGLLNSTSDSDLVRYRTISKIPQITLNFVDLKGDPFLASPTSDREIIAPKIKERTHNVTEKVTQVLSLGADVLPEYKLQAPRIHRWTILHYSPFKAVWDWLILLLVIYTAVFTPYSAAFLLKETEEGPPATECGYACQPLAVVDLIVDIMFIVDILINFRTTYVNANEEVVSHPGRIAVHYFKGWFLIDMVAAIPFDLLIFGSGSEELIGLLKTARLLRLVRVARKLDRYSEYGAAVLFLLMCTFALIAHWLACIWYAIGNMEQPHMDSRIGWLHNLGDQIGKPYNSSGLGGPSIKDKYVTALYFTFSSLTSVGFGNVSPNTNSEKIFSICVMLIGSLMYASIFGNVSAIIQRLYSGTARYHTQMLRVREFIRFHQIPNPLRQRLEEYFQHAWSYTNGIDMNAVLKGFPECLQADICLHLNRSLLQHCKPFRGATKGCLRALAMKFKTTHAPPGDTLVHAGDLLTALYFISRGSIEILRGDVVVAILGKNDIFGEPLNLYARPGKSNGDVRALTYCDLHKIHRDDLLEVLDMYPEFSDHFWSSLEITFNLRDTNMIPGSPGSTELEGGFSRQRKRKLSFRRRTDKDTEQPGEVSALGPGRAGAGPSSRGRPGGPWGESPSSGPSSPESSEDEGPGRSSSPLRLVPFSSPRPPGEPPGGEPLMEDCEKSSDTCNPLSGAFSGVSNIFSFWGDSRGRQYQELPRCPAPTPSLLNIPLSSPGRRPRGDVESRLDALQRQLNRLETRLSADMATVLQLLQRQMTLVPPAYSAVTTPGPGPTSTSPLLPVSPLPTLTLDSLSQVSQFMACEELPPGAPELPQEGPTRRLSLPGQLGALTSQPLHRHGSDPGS
assay.details: primary screen, population patch clamp on CHO cells stably expressing hERG; higher = less effect of the substance
The campaign covered roughly 310,000 compounds. About 2,200 (0.71%) showed an effect of 50% or more. The effect is printed as a negative number. The full list was thinned out, with strong results kept by preference.
Hi! Could you send only the number? It should be in %, unit omitted.

chemical.smiles	system	number
COc1ccccc1C(=O)Nc1ccnn1C1CCN(Cc2cnc(N(C)C)s2)CC1	human ether-à-go-go-related gene (hERG) potassium channel (human)	-24.7
CCCn1ncc(CN2CCC(n3nccc3NC(=O)c3ccccc3Cl)CC2)c1C	human ether-à-go-go-related gene (hERG) potassium channel (human)	-47.6
COc1ccc(OC)c(-c2csc(N(Cc3ccco3)C(=O)c3cccs3)n2)c1	human ether-à-go-go-related gene (hERG) potassium channel (human)	-0.179
O=C(N/N=C/c1cc(Cl)cc([N+](=O)[O-])c1O)C(O)(c1ccccc1)c1ccccc1	human ether-à-go-go-related gene (hERG) potassium channel (human)	-62.4
Cn1cc(CN2CCC(n3nccc3NC(=O)c3ccccc3Cl)CC2)c2ccccc21	human ether-à-go-go-related gene (hERG) potassium channel (human)	-47.6
CCn1ccnc1CN1CCC(n2nccc2NC(=O)c2ccccc2OC)CC1	human ether-à-go-go-related gene (hERG) potassium channel (human)	-64.9

Exercise: Recorded hERG current change (%, negative = inhibition) at 1uM for O=C(c1cc2ccccc2o1)c1nc2c(n1O)CCCCC2 , please?
Key: 9.78

Exercise: Suppose we examine the molecule O=C(COc1ccc(S(=O)(=O)N2CCOCC2)cc1)N1CCCCCC1 ; what hERG current change (%, negative = inhibition) at 1uM value has been reported?
Key: 25.1

Exercise: Field request: hERG current change (%, negative = inhibition) at 1uM | item: O=C(Nc1cccc(NC(=O)c2ccccc2Cl)c1)c1ccc(F)cc1
Key: 7.98
